- measurement conditions: rat; liver microsomes; pH 7.4; 15.0 min; 1.0 µM
Would you kindly list half-life for each of these compounds?
Answers are plain numbers, in min.

CN1CC(CNC(=O)OCc2ccccc2)C[C@H]2c3cccc4c3c(cn4C)CC21 (stereo not given in full): 14.3
COc1ccc(CCN2C(=O)N(c3ccc(F)cc3)C(=O)C2CC(=O)Nc2ccc(F)c(F)c2)cc1 (stereo not given): 4.04
CC1=C[C@@H](CNC(C)C)[C@H](C(C)C)C[C@H]1Cc1nnc(-c2ccncc2)o1: 4.76

Attention now turns to another entry.
Item: `O=c1c2ccccc2nc(/C=C/c2cccnc2)n1Cc1ccccc1` | half-life: 8.99

* * *

- measurement conditions: rat; liver microsomes; pH 7.4; 15.0 min; 1.0 µM
observable: half-life

Observe how each entry below is paired with its result.
Cc1nc([N+](=O)[O-])cn1-c1ccc([N+](=O)[O-])cc1: > 30 min
O=C(Nc1nc(-c2ccccc2)cs1)c1ccncc1NS(=O)(=O)c1ccc2c(c1)CCC2: 5.6 min
CCC(CC)c1cc([C@H]2CN3CC[C@H]2C[C@@H]3CNS(=O)(=O)c2cccs2)nc(-c2ccncc2)n1: > 30 min
Cc1ccc(NS(=O)(=O)c2ccc3[nH]c4c(c3c2)CCCCCC4)cc1: 2.08 min

Please give half-life for each item listed below.
1. CN(C)CCOC1=Cc2ccccc2Sc2ccc(Cl)cc21
2. O=C(Cc1ccc2ccccc2c1)Nc1ccc(S(=O)(=O)Nc2nccs2)cc1

["1.29 min", "> 30 min"]

Would you be so kind as to report half-life for each listed record?
1. COc1ccccc1C(=O)Nc1nc2nc(C)cc(=O)n2[nH]1
2. CC1(C)CNc2cc(NC(=O)c3cccnc3NCc3ccncc3)ccc21
3. CCOc1ccccc1C(=O)Nc1ccccc1C(=O)Nc1cccc(S(=O)(=O)C(F)(F)F)c1
4. CCCCNc1oc(-c2cccc3ccccc23)nc1C#N

["26 min", "15.2 min", "> 30 min", "5.78 min"]

# return half-life for each item in the list
1. COC(=O)c1cc(Cl)ccc1NC(=O)CSc1ncc(S(=O)(=O)c2ccc(Br)cc2)c(=O)[nH]1
2. Cc1nc(NCc2ccco2)nc2c1C(=O)CC(C)C2 (stereo unspecified)
3. Cc1ccc(S(=O)(=O)Nc2cnccc2C(=O)Nc2ccccc2)cc1
4. O=c1[nH]c(N2CCOCC2)nc2c1CCN(Cc1ccc(Cl)cc1F)CC2
5. CN1CCN(c2cc(-c3nc(Nc4ccc(F)c(F)c4)c4ccccc4n3)ccn2)CC1
6. Cc1sc2ncnc(Sc3nnnn3-c3ccccc3)c2c1-c1ccccc1
7. CC1=C(C(=O)Nc2nncs2)C(c2nn(C)cc2Cl)N=C(Nc2nc3ccccc3o2)N1 (stereo unspecified)

["18 min", "2.7 min", "2.6 min", "> 30 min", "5.3 min", "1.5 min", "> 30 min"]

Could you tell me half-life for each of these compounds? They are listed below.
1. Fc1cc(Nc2nc(-c3ccncc3)nc3ccccc23)ccc1N1CCCC1
2. COc1cccc(C(=O)Nc2nc(-c3nnn(-c4cccc(Cl)c4C)c3C)ns2)c1
3. N#Cc1ccccc1CSc1nc2ncc(Br)cc2[nH]1

1. 5.8 min
2. 18.6 min
3. 6.6 min

In plain terms, COc1ccc2[nH]c(S(=O)Cc3ncc(C)c(OC)c3C)nc2n1 (stereo unspecified) has a documented half-life of 19.2 min
